# System: F380Y
# method_description: modulators of BK channel variants, profiling panel, selectivity assay, cell-based, U2OS BacMam, thallium flux, beta subunits (AID 1259406);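 note: initial slope of Thallos dye fluorescence rise after thallium is added; log ratio against the mean of 0.3% DMSO vehicle wells on the same plate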
# recorded_conditions: at 30 µM
log fold change Tl+ flux under -0.002 gets 1.0, anything at or over -0.002 gets 0.0.

Example entries begin here.
| molecule | tested_system | group |
| --- | --- | --- |
| CC1CC2C3CCC4=CC(=O)C=CC4(C)[C@@]3(Cl)C(O)CC2(C)C1(O)C(=O)CO (stereo partly specified) | F380Y | 0.0 |
| Clc1ccc(-c2nc(-c3cnccn3)no2)cc1 | F380Y | 1.0 |
| N#CC(CCC(=O)O)(CCC(=O)O)S(=O)(=O)c1ccccc1 | F380Y | 0.0 |
| Cc1cc2c(cc1C)CSC(c1ccco1)SC2 | F380Y | 1.0 |
| O=c1[nH]c(=O)n(C2CC(O)C(CO)O2)cc1F (stereo unspecified) | F380Y | 1.0 |

Quick check: does CC(=O)OCC(OC(C)=O)C(OC(C)=O)C(OC(C)=O)C(C#N)OC(C)=O (stereo unspecified) have log fold change Tl+ flux under -0.002?
0.0

Quick check: does `O=c1c(Cl)c(N2CCOCC2)cnn1-c1cnc2ccccc2n1` have log fold change Tl+ flux under -0.002?
0.0

Quick check: does `COc1cccc(CC(=O)NC2CCN(c3nccc(C(F)(F)F)n3)CC2)c1` have log fold change Tl+ flux under -0.002?
1.0

Quick check: does `O=C(c1ccccc1)c1ccc2c(c1)Cc1ccccc1-2` have log fold change Tl+ flux under -0.002?
0.0

Quick check: does COC(=O)CC1(C(=O)OC)Oc2ccc(Br)cc2C(=O)N1c1cccc(Cl)c1Cl (stereo unspecified) have log fold change Tl+ flux under -0.002?
1.0

Quick check: does `Oc1c(Cl)c(Cl)c(Cl)c2ccccc12` have log fold change Tl+ flux under -0.002?
0.0

* * *

# method_description: antimalarial activity against Dd2 strain (AID 2302);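 note: 0% = DMSO untreated growth and 100% = chloroquine plus artemisinin killed control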
# recorded_conditions: P. falciparum Dd2 in RBCs, LDH growth readout, 72 h; at 2 µM
Activity calls are given as the source filed them.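 The calls were made as follows: active = growth inhibition above 50% at the single 2 µM test dose, taken to imply half-maximal potency below 2 µM; inactive = the rest.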
Returns: one label drawn from active, inactive

Can you look up the reported call for `Cc1nc2nc(N)nc(N)c2c(C)c1Cc1ccc(O)cc1` for me?
inactive

Can you look up the reported call for CCCC(C)NC(=O)[C@H](Cc1ccccc1)NC(=O)c1ccc(O)c(-c2ccc(OC)cc2)c1 (some centres undefined) for me?
inactive

Can you look up the reported call for `NC1=NC(c2ccccc2)(c2ccccc2)C(=O)N1Cc1ccccc1Br` for me?
inactive

Can you look up the reported call for `O=C(/C=C/c1ccc(Cl)cc1)NCCCCCN1CCCN(C(=O)Nc2cccc(Cl)c2)CC1` for me?
inactive

* * *

Each record here notes measured red/green cell ratio (normalised).
# method_description: differential killing of epithelial or mesenchymal cells, primary screen, imaging, PC-3E GFP, TEM4-18 mCherry, co-culture (AID 1345086);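 note: normalised mesenchymal count divided by normalised epithelial count so high means epithelial killing; cells exposed to compound for 72 h before imaging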
# recorded_conditions: imaging cell counts, at 1 µM, actives lie on both sides, counts scaled to control wells, 1 = unselective
The source made the active and inactive calls.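 Rule for the calls: active = compounds killing one labelled cell type while sparing the other, by normalised counts and ratio limits, not self-fluorescent; inactive = the rest.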

Summary for this compound, CC(C)CCCC(C)[C@H]1CCC2C3C=CC4=CC(=O)CC[C@]4(C)C3CC[C@@]21C (stereo partly drawn) : red/green cell ratio (normalised) is 0.99 (inactive)

Summary for this compound, `O=c1cc(-c2ccccc2O)oc2cc(O)ccc12` : red/green cell ratio (normalised) is 1 (inactive)

Data provenance: PubChem BioAssay
